- System: A549 NSCLC

{"columns": ["compound", "GI50"],
 "data": [
  ["Oc1ccc(Cl)cc1Cc1cc(Cl)ccc1O", "2950 nM"],
  ["O=c1[nH]c2ccccc2n1-c1n[nH]c2ccccc12", "30800 nM"],
  ["Oc1[nH]c2cc(Cl)ccc2c1/C=c1/ccc2c(c1)N=C(c1cc(F)cc(F)c1)N=2", "1640 nM"],
  ["CC1=C(C(=O)Nc2ccc(Cl)c(Cl)c2)C(c2ccccc2O)NC(=O)N1 (stereo not drawn)", "> 50000 nM"],
  ["CO[C@]1(CN2CCN3CCCC[C@@H]3C2)/C=C/C[C@H](C)[C@@H](C)S(=O)(=O)NC(=O)c2ccc3c(c2)N(C[C@@H]2CC[C@H]21)C[C@@]1(CCCc2cc(Cl)ccc21)CO3", "2750 nM"],
  ["N[C@@H]1CCCC[C@@H]1N.O=P([O-])([O-])CN(CP(=O)([O-])[O-])CP(=O)([O-])[O-].[Pt+2]", "> 100000 nM"],
  ["COc1cccc(/C=C/C(=O)c2cc3c(N)c(C(=O)Nc4cccc5ccccc45)sc3nc2C)c1", "1460 nM"],
  ["CSC1=NCC2(S1)c1ccccc1N(C(=O)OC(C)(C)C)C2N1CCCCC1 (stereo not drawn)", "> 100000 nM"]
]}

* * *

- Test system: SNB-19 CNS
- measurement description: NCI tumour cell line growth inhibition, 48 h

{"columns": ["compound", "TGI"],
 "data": [
  ["Nc1[nH]c(=O)ncc1CO", "> 100 µM"],
  ["CCCCCCCCCCCCOP(N)(=O)OCCCCCCCCCCCC", "> 100 µM"],
  ["COC(=O)C1=C(O)C(C(=O)OC)[C@]2(O)[C@H](C(=O)OC)[C@H]1C[C@@H](c1ccc([N+](=O)[O-])cc1)[C@H]2C(=O)OC (stereo not given in full)", "65.5 µM"],
  ["CCN(CC)c1nc(N(C)C)c2ccccc2n1", "> 100 µM"],
  ["C[C@@H]1C[C@]2(C[C@@H](C)C3[C@@H](CC4(C)[C@@H]5CCC6C(C)(C)OC(=O)C=C[C@]67C[C@@]5(CC[C@]34C)OO7)O2)OC1=O (stereo not given in full)", "> 100 µM"],
  ["O=C(Cc1ccccc1)NN1C(=O)/C(=C\\c2ccc(O)cc2)SC1=Nc1ccccc1", "> 100 µM"],
  ["COc1cc([N+](=O)[O-])c2ncccc2c1[N+](=O)[O-]", "30.8 µM"],
  ["CC(=O)Oc1ccc(/C=N/NC(N)=S)nc1", "> 100 µM"],
  ["O=C(c1ccco1)N(C(=S)OC12CC3CC(CC(C3)C1)C2)c1ccccc1", "> 100 µM"],
  ["CN(C=O)/C=C/c1cc(O)ccc1O", "> 100 µM"]
]}

* * *

- System: SN12C renal
- measurement description: NCI tumour cell line growth inhibition, 48 h

{"columns": ["compound", "experimental system", "TGI"],
 "data": [
  ["C(/Cc1ccc2c(c1)OCO2)=N\\NC1=NCCCN1", "SN12C renal", "> 100 µM"],
  ["NC(=O)Cc1nc2c(=O)[nH]cnc2n1C1OC(CO)C(O)C1O (centres undefined)", "SN12C renal", "> 100 µM"],
  ["O=C(NCCCCCCCNC(=O)OCc1ccc2c(Cl)cc(Cl)c(O)c2n1)OCc1ccc2c(Cl)cc(Cl)c(O)c2n1", "SN12C renal", "2.17 µM"],
  ["COc1ccc2nc3n(c2c1)CCc1cc(OC)c(OC)cc1-3", "SN12C renal", "> 100 µM"],
  ["COc1cccc(C2NC(=S)NC(C)=C2C(=O)Nc2ccc(Cl)c(Cl)c2)c1 (centres undefined)", "SN12C renal", "17.1 µM"],
  ["CC1OC2OC3C(OCC(O)C3O)OC(=O)[C@]34CCC(C)(C)CC3C3=CCC5[C@@]6(C)C[C@H](O)[C@H](OC7OC(CO)C(O)C(O)C7OC7OCC(OC(=O)CC(C)(O)CC(=O)OC1C(OC1OC(CO)C(O)C(O)C1O)C2O)C(O)C7O)[C@@](C)(CO)C6CC[C@@]5(C)[C@]3(C)CC4 (some centres undefined)", "SN12C renal", "23.3 µM"],
  ["O=C1c2ccccc2-c2[nH]c3cn[nH]c(=O)c3c21", "SN12C renal", "> 100 µM"],
  ["O=C1C=CC(=O)c2c(Cl)ccc(O)c21", "SN12C renal", "39 µM"],
  ["Cc1csc(NC(=NCCN2CCOCC2)Nc2nc(C)cs2)n1", "SN12C renal", "> 100 µM"],
  ["CC1=C(C(=O)Nc2ccc(Cl)c(Cl)c2)C(c2ccccc2O)NC(=O)N1 (centres undefined)", "SN12C renal", "> 50 µM"],
  ["NC(=O)CO/N=C1/C(c2c(O)[nH]c3ccccc23)=Nc2ccccc21", "SN12C renal", "> 100 µM"],
  ["CCOc1cc(-c2ccc[nH]2)[nH]c1/C=C1\\N=C(C)C(C(=O)OC)=C1C", "SN12C renal", "1.72 µM"],
  ["C[C@@H]1C[C@]2(C[C@@H](C)C3[C@@H](CC4(C)[C@@H]5CCC6C(C)(C)OC(=O)C=C[C@]67C[C@@]5(CC[C@]34C)OO7)O2)OC1=O (some centres undefined)", "SN12C renal", "> 100 µM"],
  ["CC1(C)CC[C@]2(C(N)=O)CC[C@]3(C)C(=CC[C@@H]4[C@@]5(C)C/C(=C/c6ccncc6)C(=O)C(C)(C)[C@@H]5CC[C@]43C)[C@@H]2C1", "SN12C renal", "3.67 µM"],
  ["C/C=C1\\C(=O)OC2CCN3CCC(COC(=O)C(C)(O)C(C)C1O)C23 (centres undefined)", "SN12C renal", "> 100 µM"],
  ["COc1c(C)c(C/C=C(\\C)CC/C=C(\\C)CCC=C(C)C)c(OC)c(OC)c1OC", "SN12C renal", "> 100 µM"],
  ["C=CC1CN2CCC1CC2C(O)c1ccnc2ccccc12 (centres undefined)", "SN12C renal", "> 100 µM"],
  ["NCCC1CN(C(=O)OCc2ccccc2)c2ccccc21 (centres undefined)", "SN12C renal", "27.3 µM"],
  ["O=[N+]([O-])c1ccc(C(Nc2ccccc2)c2ccc3cccnc3c2O)cc1 (centres undefined)", "SN12C renal", "> 56.2 µM"],
  ["NS(=O)(=O)c1ccc(NNc2c3ccccc3nc3c(C(=O)Nc4ccc(S(=O)(=O)Nc5ncccn5)cc4)cccc23)cc1", "SN12C renal", "> 25 µM"],
  ["COC(=O)c1c(C)nc(C)c(NO)c1-c1ccccc1C(F)(F)F", "SN12C renal", "62.4 µM"],
  ["CCN(CC)c1nc(N(C)C)c2ccccc2n1", "SN12C renal", "> 100 µM"],
  ["CO[C@]1(CN2CCN3CCCC[C@@H]3C2)/C=C/C[C@H](C)[C@@H](C)S(=O)(=O)NC(=O)c2ccc3c(c2)N(C[C@@H]2CC[C@H]21)C[C@@]1(CCCc2cc(Cl)ccc21)CO3", "SN12C renal", "3.08 µM"],
  ["O=c1cc(-c2ccccn2)[nH]c2ccc(Cl)cc12", "SN12C renal", "> 100 µM"],
  ["CCCCCCCCCCCCCc1nn[nH]n1", "SN12C renal", "35.9 µM"],
  ["CC(=O)O[C@H]1CC[C@@]2(C)[C@H](CC[C@@H]3[C@@H]2CC[C@]2(C)[C@@H](c4ccc(=O)oc4)C[C@H]4O[C@]342)C1", "SN12C renal", "9.49 µM"],
  ["COC(OC)c1cc2c(cc1C(=O)[C@@]13CCC[C@@H]1NC(=O)O3)OCO2", "SN12C renal", "> 100 µM"],
  ["S=c1nc(-c2ccnc(-c3nc(=S)[nH][nH]3)c2)[nH][nH]1", "SN12C renal", "> 100 µM"],
  ["NC1=NCC(CN2CCCC2)O1 (centres undefined)", "SN12C renal", "> 100 µM"],
  ["CCN(CC)CCN(C(=O)C(C)(C)C)c1ccccc1N", "SN12C renal", "> 100 µM"],
  ["Cc1ccc(-c2n[nH]c(=O)n2/N=C\\c2ccccc2)cc1", "SN12C renal", "> 90.4 µM"],
  ["CCOP(=O)(Nc1ccc2oc(=O)c3ccccc3c2c1)OCC", "SN12C renal", "> 100 µM"],
  ["N=C1C=C(N)C(=O)c2[nH]c(=O)ccc21", "SN12C renal", "3.16 µM"],
  ["C#CCC1(C(=O)OCC)C(=O)c2ccccc2N(C)C1=O (centres undefined)", "SN12C renal", "> 100 µM"],
  ["N#CC1C=Cc2ccccc2N1C(=O)Oc1ccccc1 (centres undefined)", "SN12C renal", "> 100 µM"],
  ["COc1nc(NC2OC(COC(C)=O)C(OC(C)=O)C(OC(C)=O)C2OC(C)=O)c(-c2csc(N)n2)c(=O)n1C (centres undefined)", "SN12C renal", "> 100 µM"],
  ["COc1ccc(OC)c2c3c(ccc12)C(c1ccccc1)OC3=O (centres undefined)", "SN12C renal", "> 100 µM"],
  ["c1ccc(-c2nnn(CCN3CCCCC3)n2)cc1", "SN12C renal", "> 100 µM"],
  ["CC(C)C(=O)Oc1cc2c(=O)oc3c(OC(=O)C(C)C)c(OC(=O)C(C)C)cc4c(=O)oc(c1OC(=O)C(C)C)c2c34", "SN12C renal", "> 100 µM"]
]}

The measurements presented in this section are drawn from PubChem BioAssay (NCI).
